target: Hap1 (UniProt P0CE41); assay: PBM E-score (8-mer binding enrichment) (E-score (-0.5 to 0.5)); higher = stronger / more preferred TF binding; conditions: protein concentration: 200 nM; construct: GST-DNA-binding domain
Sequence (P0CE41 whole entry, the tested form may be a part): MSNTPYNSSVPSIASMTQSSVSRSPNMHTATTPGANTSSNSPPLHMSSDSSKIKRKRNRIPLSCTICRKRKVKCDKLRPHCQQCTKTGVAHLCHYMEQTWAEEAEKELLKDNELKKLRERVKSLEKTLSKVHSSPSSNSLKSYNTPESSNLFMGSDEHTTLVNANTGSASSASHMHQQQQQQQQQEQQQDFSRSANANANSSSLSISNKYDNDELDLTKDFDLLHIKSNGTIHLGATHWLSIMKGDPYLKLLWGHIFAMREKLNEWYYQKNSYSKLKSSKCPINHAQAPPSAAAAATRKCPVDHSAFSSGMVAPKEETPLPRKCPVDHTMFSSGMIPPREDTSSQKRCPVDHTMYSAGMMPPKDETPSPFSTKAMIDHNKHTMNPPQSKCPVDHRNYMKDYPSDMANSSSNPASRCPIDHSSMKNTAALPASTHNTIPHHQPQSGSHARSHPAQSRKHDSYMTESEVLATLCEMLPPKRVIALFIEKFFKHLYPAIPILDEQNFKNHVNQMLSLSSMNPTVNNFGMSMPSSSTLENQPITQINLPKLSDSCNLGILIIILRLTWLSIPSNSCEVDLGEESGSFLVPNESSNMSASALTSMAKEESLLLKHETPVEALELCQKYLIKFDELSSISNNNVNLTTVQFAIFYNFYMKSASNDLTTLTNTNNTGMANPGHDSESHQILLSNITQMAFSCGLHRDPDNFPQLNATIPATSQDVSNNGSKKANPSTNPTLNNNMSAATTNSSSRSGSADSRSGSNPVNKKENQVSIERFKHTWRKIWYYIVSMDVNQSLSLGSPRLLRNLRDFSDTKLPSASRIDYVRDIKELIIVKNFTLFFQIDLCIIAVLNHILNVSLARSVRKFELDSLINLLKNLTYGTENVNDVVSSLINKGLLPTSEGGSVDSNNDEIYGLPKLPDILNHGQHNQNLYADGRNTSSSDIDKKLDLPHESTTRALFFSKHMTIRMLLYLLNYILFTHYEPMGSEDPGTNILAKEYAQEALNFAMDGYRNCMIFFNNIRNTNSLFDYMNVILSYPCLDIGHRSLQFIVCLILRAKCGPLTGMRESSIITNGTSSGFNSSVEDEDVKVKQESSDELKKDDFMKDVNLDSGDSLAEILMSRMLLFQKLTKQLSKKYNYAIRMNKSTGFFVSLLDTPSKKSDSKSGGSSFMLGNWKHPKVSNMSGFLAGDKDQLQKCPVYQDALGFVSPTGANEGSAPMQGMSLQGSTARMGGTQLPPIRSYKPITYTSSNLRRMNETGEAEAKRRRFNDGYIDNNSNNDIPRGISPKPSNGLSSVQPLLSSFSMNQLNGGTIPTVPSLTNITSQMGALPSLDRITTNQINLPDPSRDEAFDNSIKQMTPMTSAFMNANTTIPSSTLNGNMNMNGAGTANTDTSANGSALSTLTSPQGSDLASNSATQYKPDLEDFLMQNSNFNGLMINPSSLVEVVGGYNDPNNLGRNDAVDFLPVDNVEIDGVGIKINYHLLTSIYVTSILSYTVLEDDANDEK
In all, about 33,000 sequences were measured (“E-score (-0.5 to 0.5)”: median about -0.053, highest 2% from about 0.37 on). For the sample, the highest values were picked, then their nearest neighbours and some sequences at random.
Label class 1 when PBM E-score is at or above 0.2; otherwise label class 0.

biopolymerSequence	assignedClass
ACCGGAGT	class 1
CGCCGATC	class 1
AGTTCCGC	class 1
GCCGGGAA	class 1
TCGACCAA	class 0
GGCCGTTA	class 1
ACATCCGA	class 1
CCCGGGTA	class 1
GACCGGGA	class 1
ATTCCCCG	class 1
TACCGGTA	class 1
CCCGGGCG	class 1
ACCGGAAT	class 1
ACCGACGG	class 1
TCTTTTCA	class 0
CAGTTCGA	class 0
ACCGACCG	class 1
AACCGGTA	class 1
ACCGGGTC	class 0
ACATCCGG	class 1
TCGACCCA	class 0
CGGCGCAC	class 1
GGCCGATA	class 1
TGGAAACA	class 0
CGGATTTC	class 1
AGGCGGCC	class 0
ACCGACGT	class 0
CCGGACGG	class 1
ACTCCCGG	class 1
GACCGGTA	class 1
AGCCCTAC	class 0
AGAAATAA	class 0
GGGGCTCA	class 0
GGGAATAA	class 1
CGCCGATA	class 1
CGGCGATA	class 1
CGGACCAC	class 1
CCTCTAAG	class 0
AGATTACA	class 0
CCGGACGA	class 1
CGGACCAG	class 1
CAAGGGGA	class 0
ACTCCCCG	class 1
CACCGGTA	class 1
AGTTCCGG	class 1
AAGCCTCA	class 0
ACATCCGC	class 1
CGGACCCG	class 1
GCCGCTTA	class 0
GGGCGTTA	class 0
AACCGGGA	class 0
GCGGCTCA	class 0
AGGATTTA	class 1
GGGAATAC	class 0
TAGCCTAA	class 0
ATACTGAG	class 0
CCGGGAGA	class 1
TTCCGCAA	class 1
TCCCGGGA	class 1
GTTCCCGA	class 1
GCATATCA	class 0
TGGAATAA	class 0
ATTCCCGG	class 1
TACTTAGA	class 0
CCCAGAGA	class 0
AGTTCCGA	class 1
CGAAATAA	class 0
ATCAAGCG	class 0
TCCAAGGA	class 0
ATTCCCGA	class 1
ACAGGGCC	class 0
CGCCGTTA	class 1
TCGACCGA	class 1
CTACTAGC	class 0
GCGGACGA	class 1
CGGCGTTC	class 1
CCATCCGG	class 1
ACGGACGA	class 1
CCCCGGGA	class 1
CACCGGTG	class 1
ACTGGTAG	class 0
CTGGACGA	class 0
ACGGACGG	class 1
CTGATTTC	class 0
CCCGACCG	class 1
CCCGGGGC	class 1
ACATCCTG	class 0
TCGGACGA	class 1
CGGACCAA	class 1
GGCCGCTA	class 1

* * *

biological target: Hap1 (UniProt P0CE41); assay: PBM E-score (8-mer binding enrichment) (E-score (-0.5 to 0.5)); higher = stronger / more preferred TF binding; settings: protein concentration: 200 nM; construct: GST-DNA-binding domain
The full ranking holds about 33,000 sequences; the median of “E-score (-0.5 to 0.5)” is about -0.053, and the highest 2% start at about 0.37. Shown is part of a subset that was picked to be rich in the highest values.
Range-based classes on measured PBM E-score: group 1 (below 0.02), group 2 (0.02 to below 0.3), group 3 (0.3 or more)

biopolymerSequence	assignedClass
TCGAAAAA	group 1
GCCGGACC	group 3
GCGATAAA	group 2
ACGATAAG	group 2
AGAATTCT	group 2
TAGCCGGA	group 3
TCTCCAAA	group 1
ACTCGCAA	group 1
CCCGGACA	group 3
GTGGCCAC	group 2
GGGGCATA	group 2
TACCGGCA	group 3
GCGAAAGC	group 2
GACCGGGC	group 3
ATCCCCGA	group 3
ATTCGTAC	group 1
CGAAAGTA	group 2
AAGTGCGA	group 1
TACCGCAA	group 2
GAGGAGAC	group 1
CACCGAGA	group 2
CAGCCGGC	group 3
ACCTCGCT	group 2
CCCAACAG	group 1
AACCGAGT	group 2
AAGCCGGC	group 3
AACCGGAC	group 3
ATCCCGGC	group 3
CCGATAAC	group 3
GCGATAAC	group 3
GCGAAAAC	group 1
TCCGGACA	group 3
CCGAAAGA	group 3
ACTATGCA	group 1
TGCGGTAA	group 2
TAGCCGAA	group 3
GTCCCCGA	group 2
GACCGAGA	group 3
CCGATAAG	group 3
TATGGTCA	group 1
CACCGGAA	group 3
CATCTTTC	group 1
AAGCCGGT	group 3
TCGATAAA	group 2
GACCGAGC	group 3
ACTAAACG	group 1
CCCCCCCC	group 1
CTATTTCC	group 3
CTCCCCGC	group 2
GCAGCTTA	group 1
GACGGACA	group 3
CTTTAACC	group 1
AGATGAAC	group 1
ACGATAAC	group 2
ATATTTCG	group 2
CCTTGTCA	group 1
GATGCGAA	group 1
CCGAAAAC	group 3
AAGCCGTC	group 2
CAGCCGGA	group 3
AACCTATC	group 1
GTCGAATA	group 1
CACCGGAG	group 3
ACCTTGCC	group 1
AGTGCTAA	group 2
AAGCCGGG	group 2
ATGCCAGG	group 1
CTATTTCA	group 1
ATCCCGGA	group 3
ATACGTCA	group 2
TCAGCAAA	group 1
ACTGCCGA	group 2
CCGAAAAG	group 3
CTCCCCGA	group 2
TCTATGAA	group 1
CAGTTTGG	group 1
TCCGGTAA	group 3
TACCTCCA	group 1
GAGCCGGA	group 3
GACCGACC	group 2
ACAATAGG	group 1
GACCGGAC	group 3
GAGCCGCA	group 1
CACCGGGA	group 2
GCCGGACA	group 3
AGCACTAT	group 1
TGACTCAA	group 1
